target: T1, rat PD-L1 (Sino Biological, Cat #80450-R08H) (rat, UniProt D4AE25 19-239); test: ELISA
T1 construct: not shown: The vendor's polyhistidine tag
T1 sequence (D4AE25 entry or part of it R08H R08H limits assumed): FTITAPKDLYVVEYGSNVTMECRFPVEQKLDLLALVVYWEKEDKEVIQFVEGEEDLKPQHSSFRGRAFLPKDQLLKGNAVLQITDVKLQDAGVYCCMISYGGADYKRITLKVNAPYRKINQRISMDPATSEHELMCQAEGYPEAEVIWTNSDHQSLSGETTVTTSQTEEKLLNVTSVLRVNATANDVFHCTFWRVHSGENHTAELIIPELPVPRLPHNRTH
property_measured: binding result

{"binder": "57F11 (antibody, human IgG1, V domains shown) VH: QEHLEESGGGLVQPEGALTLTCTASGFSFSGDYYMSWVRQAPGKGLEWIASIYTGSLNTYYATWAKGRFTISIASSTTVTLQVTSLTAADTATYFCARRTKNGDYGYFDLWGPGTLVTVSS VL: YDMTQTPASVEVAVGGTVTIKCQASQSINDRLAWYQQKPGQPPKLLIYAASTLASGVPSRFKGSGSGTEFTLTISDLECADAATYYCQQGWTVSSLENAFGGGTEVVAK", "property_measured": "binding result", "observed": "no binding"}
{"binder": "32E2 (antibody, human IgG1, V domains shown) VH: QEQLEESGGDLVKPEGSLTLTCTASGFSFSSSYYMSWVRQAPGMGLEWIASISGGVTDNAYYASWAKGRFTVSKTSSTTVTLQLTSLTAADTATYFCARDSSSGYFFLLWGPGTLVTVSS VL: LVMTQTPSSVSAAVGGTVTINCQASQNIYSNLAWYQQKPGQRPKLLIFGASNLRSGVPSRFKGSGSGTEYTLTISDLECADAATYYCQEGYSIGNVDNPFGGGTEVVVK", "property_measured": "binding result", "observed": "no binding"}

The values you see were collected from patent US20250171542A1.
